Ref: PubChem BioAssay (NCI)

Give measured growth for each item. Keep answers brief.
- System: SR leukemia
- Assay Method Text: NCI-60 one-dose screen, 48 h (100 = growth as untreated, 0 = no growth, -100 = all killed)
- Experimental Context: 10 µM unless noted
About 83,000 compounds went through this panel and 20% of them were active in at least one assay; those are over-represented in the sample as a whole. Activity calls are given as the source filed them. The calls were made as follows: active = growth percent below 10; inactive = the rest.

Task: Given the compound Cc1ccc(NC(=O)c2sc3nc(C)c(C(O)c4ccccc4)cc3c2N)cc1 (stereo not given) , what is its reported growth?
Result: 1.92% (active)

Task: Given the compound `C=C[C@@]1(C)CC(=O)[C@@H](C(C)(C)c2cn(C)c3ccc(Br)cc23)C[C@@H]1O[Si](C)(C)C(C)(C)C` , what is its reported growth?
Result: 103% (inactive)

Task: Given the compound `CCSc1ccnc(N)n1` , what is its reported growth?
Result: 153% (inactive)

Task: Given the compound Nc1ncnc2c1N=C(c1ccc(Cl)cc1)CC(c1cccc(Nc3ccnc4cc(Cl)ccc34)c1)N2 (stereo not given) , what is its reported growth?
Result: -12.6% (active)

Task: Given the compound `Nc1ccc(-c2ccncc2)cc1NC(=O)N1CCCC1` , what is its reported growth?
Result: 91.8% (inactive)

Task: Given the compound `Cc1cccc(N=Nc2cccc(C)c2)c1` , what is its reported growth?
Result: 108% (inactive)

Task: Given the compound `COc1ccc(/C=C2\c3cc(OC)c(OC)c(OC)c3CC[C@@H]2O)cc1F` , what is its reported growth?
Result: 3.9% (active)

Task: Given the compound `COc1cccc(-c2cn3nc(-c4cn(C)c5ccccc45)sc3n2)c1` , what is its reported growth?
Result: 24.9% (inactive)

Task: Given the compound CCOC(=O)c1cnn(CC(C)O)c1NC(=O)NCc1cccc(F)c1 (stereo not given) , what is its reported growth?
Result: 92.1% (inactive)

Task: Given the compound `COc1cc(C=Nc2oc(-c3ccccc3)c(-c3ccccc3)c2C#N)cc(CN2CCCC2)c1O` , what is its reported growth?
Result: 80.9% (inactive)

###

- Test system: SK-OV-3 ovarian
- Assay Method Text: NCI-60 one-dose screen, 48 h (100 = growth as untreated, 0 = no growth, -100 = all killed)
- Experimental Context: 10 µM unless noted
This is part of a sample that, as a whole, favours compounds with a hit. Of some 83,000 tested, about 20% had one in any assay.
So basically: is growth under 50%? Then Met. Not under? Then Not met.

Task: # TODO verify growth < 50% strictly for this molecule: `COCC(=O)Oc1cc(-c2ccc(C)cc2C)c(OC(=O)COC)c(-c2ccc(C)cc2C)c1`
Result: Not met

Task: # TODO verify growth < 50% strictly for this molecule: `COc1ccc(C(=O)Nc2ncc(Cc3ccc(Cl)cc3)s2)cc1`
Result: Met

Task: # TODO verify growth < 50% strictly for this molecule: COc1cc(N2C(=O)[C@H](Cl)C2c2ccc(SC)cc2)cc(OC)c1OC (stereo not given in full)
Result: Met

Task: # TODO verify growth < 50% strictly for this molecule: `NC(=O)c1ccccc1OCC(=O)Nc1ccc(Cl)c(Cl)c1`
Result: Not met

###

- Test system: SF-539 CNS
- Assay Method Text: NCI-60 one-dose screen, 48 h (100 = growth as untreated, 0 = no growth, -100 = all killed)
- Experimental Context: 10 µM unless noted
The panel holds about 83,000 compounds, 20% with a hit somewhere; the sample as a whole holds those more often. Activity calls are given as the source filed them. How the source made its calls: active means growth percent below 10; inactive means the rest.
Readout Name: growth

Task: Given the molecule `COC12C=C/C(=C(/C(=O)OCc3cncnc3)C(=O)CCCCCCCCC3(OC)C=C/C(=C(/C(=O)OCc4cncnc4)C(=O)CCCCCCCC1)O3)O2` , what is its reported growth?
Result: -27% (active)

Task: Given the molecule Nc1ncnc2c1N=C(c1ccc(F)cc1)CC(c1cccc(Nc3ccnc4cc(Cl)ccc34)c1)N2 (centres undefined) , what is its reported growth?
Result: 80.6% (inactive)

Task: Given the molecule CC(=O)N1N=C(c2ccc(Nc3nc(Nc4ccc(F)cc4)nc(Nc4ccc(F)cc4)n3)cc2)CC1c1ccc(N(C)C)cc1 (centres undefined) , what is its reported growth?
Result: 65.5% (inactive)

Task: Given the molecule `Cc1c2ncccc2nc2[nH]c3ccc(OCCN(C)C)cc3c12` , what is its reported growth?
Result: 38.5% (inactive)
